The values you see were collected from patent US20240316059A1.

Tested on: KMS-12-BM
assay protocol: In vitro cytotoxicity, KMS-12-BM (Multiple Myeloma)
Assay type: cell-based
measurement conditions: Homo sapiens, 72 h, read-out: Cytotoxicity IC50, KMS-12-BM
pIC50: −log10 of the molar value.

# molecule, system tested, pIC50
records = [
    ("CCOC(=O)[C@H](CC(C)C)NC(=O)[C@@H](N)CCc1nc2cc(N(CCCl)CCCl)ccc2n1C", "KMS-12-BM", 8.10),
    ("CCOC(=O)[C@H](CC(C)C)NC(=O)[C@@H](N)CCc1nc2cc(N(CCCl)CCCl)ccc2n1-c1ccccc1", "KMS-12-BM", 6.86),
    ("Cn1c(CCCC(=O)O)nc2cc(N(CCCl)CCCl)ccc21 [Bendamustine, bendamustine, reference compound]", "KMS-12-BM", 4.56),
]
